# reported kon; entries follow
# MEASUREMENT_TARGET: T1, full length recombinant human 2N4R tau (amino acids 1-441) (human, UniProt P10636 1-758)
# T1 construct: Bought (rPeptide); recombinant, non-phosphorylated; also called recombinant tau
# T1 sequence (P10636 other isoform, or with tags, fused parts or gaps limits assumed): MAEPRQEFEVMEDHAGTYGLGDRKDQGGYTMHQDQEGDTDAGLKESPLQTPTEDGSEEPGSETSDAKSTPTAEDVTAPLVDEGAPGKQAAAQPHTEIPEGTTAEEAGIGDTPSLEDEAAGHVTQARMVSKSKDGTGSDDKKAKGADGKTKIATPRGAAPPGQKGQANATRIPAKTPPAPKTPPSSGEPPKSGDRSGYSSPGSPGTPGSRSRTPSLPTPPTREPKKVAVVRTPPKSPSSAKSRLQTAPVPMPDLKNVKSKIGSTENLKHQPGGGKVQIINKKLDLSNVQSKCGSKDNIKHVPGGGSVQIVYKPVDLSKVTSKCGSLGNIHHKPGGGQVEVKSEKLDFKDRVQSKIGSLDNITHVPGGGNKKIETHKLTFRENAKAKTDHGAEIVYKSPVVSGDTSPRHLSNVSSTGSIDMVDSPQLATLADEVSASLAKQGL
# METHOD: SPR Biacore SCK, IgG on Protein A, tau analyte
Record the result as a number with its unit.

BINDER: Clone 29 (VH4Vκ5), humanised variant of clone #28, human IgG1 (antibody, V domains shown, also called VH4VK5) VH: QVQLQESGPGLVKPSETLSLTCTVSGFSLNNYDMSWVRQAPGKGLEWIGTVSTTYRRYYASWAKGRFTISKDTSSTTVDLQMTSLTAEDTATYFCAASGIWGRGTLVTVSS VL: DIQMTQSPSTLSASVGDRVTITCQSSQRVSSSYLAWYQQKPGQPPKRLIFLASTLESGVPSRFSGSGSGTEFTLTISSLQPDDFATYYCAGTYTGSIWAFGGGTKVEIK
kon: 35900 M⁻¹ s⁻¹
--
BINDER: Clone 32 (VH5Vκ4), humanised variant of clone #28, human IgG1 (antibody, V domains shown, also called VH5VK4; VH5Vk4) VH: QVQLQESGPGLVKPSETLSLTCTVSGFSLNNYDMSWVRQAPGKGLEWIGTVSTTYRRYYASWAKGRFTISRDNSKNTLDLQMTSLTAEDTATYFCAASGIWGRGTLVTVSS VL: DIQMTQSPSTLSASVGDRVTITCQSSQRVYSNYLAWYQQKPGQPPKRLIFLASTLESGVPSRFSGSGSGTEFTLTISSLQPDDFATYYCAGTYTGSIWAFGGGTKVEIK
kon: 35500 M⁻¹ s⁻¹

Endpoint output: kon of Clone 21 (VH2Vκ5), humanised variant of clone #28, human IgG1 (antibody, V domains shown, also called VH2VK5) VH: QSLQESGPGLVKPSETLSLTCTVSGFSLNNYDMSWVRQAPGKGLEWIGTVSTTYRRYYASWAKGRFTISKTSSTTVDLQMTSLTAEDTATYFCAASGIWGRGTLVTVSS VL: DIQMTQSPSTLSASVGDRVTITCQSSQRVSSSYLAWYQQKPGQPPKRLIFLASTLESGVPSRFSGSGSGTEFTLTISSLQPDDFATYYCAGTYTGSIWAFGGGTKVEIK . Value?
38500 M⁻¹ s⁻¹
